Tested on: 388556-164-R-J1-PDC complex spheroid viability
experiment notes: Anticancer human tumor 388556-164-R-J1-PDC patient-derived colon adenocarcinoma cell line growth inhibition [RAS]
applied conditions: second compound 10 µM; first compound 1 µM; stronger effect = lower value
measured property: viability, T/C

Some molecules with known viability, T/C results, for comparison:
molecule	viability, T/C
C[C@@H](NC(=O)c1ncnc(N)c1Cl)c1ncc(C(=O)Nc2cc(C(F)(F)F)c(Cl)cn2)s1 + C#Cc1c(F)ccc2cc(O)cc(-c3ncc4c(N5CC6CCC(C5)N6)nc(OCC56CCCN5CC(F)C6)nc4c3F)c12	96%
Nc1ccn(C2OC(CO)C(O)C2(F)F)c(=O)n1 (centres undefined) + C#Cc1c(F)ccc2cc(O)cc(-c3ncc4c(N5CC6CCC(C5)N6)nc(OCC56CCCN5CC(F)C6)nc4c3F)c12	49.1%
C=CC(=O)N1CCN(c2nc(OCC3CCCN3C)nc3c(F)c(-c4nc(N)cc(C)c4C(F)(F)F)c(Cl)cc23)C(C)C1 (centres undefined) + C#Cc1c(F)ccc2cc(O)cc(-c3ncc4c(N5CC6CCC(C5)N6)nc(OCC56CCCN5CC(F)C6)nc4c3F)c12	55.8%

// next item, viability, T/C requested
# viability, T/C of NC1c2ccccc2OC12CCN(c1cnc3c(N4CCCc5ncccc54)n[nH]c3n1)CC2 (centres undefined) + C#Cc1c(F)ccc2cc(O)cc(-c3ncc4c(N5CC6CCC(C5)N6)nc(OCC56CCCN5CC(F)C6)nc4c3F)c12 = 23.9%

---

System: 388556-164-R-J1-PDC complex spheroid viability
experiment notes: Anticancer human tumor 388556-164-R-J1-PDC cell line growth inhibition [RAS];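 further: spheroids exposed to compound for 7 days before readout; 100% = DMSO vehicle control luminescence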
applied conditions: second compound 0.316 µM; first compound 0.1 µM; stronger effect = lower value
measured property: viability, T/C

Would you please look over these solved cases?
compound	reported measurement
Nc1ccn(C2OC(CO)C(O)C2(F)F)c(=O)n1 (stereo unspecified) + C#Cc1c(F)ccc2cc(O)cc(-c3ncc4c(N5CC6CCC(C5)N6)nc(OCC56CCCN5CC(F)C6)nc4c3F)c12	74.8%
CC(C)NCC(C(=O)N1CCN(c2ncnc3c2C(C)CC3O)CC1)c1ccc(Cl)cc1 (stereo unspecified) + C#Cc1c(F)ccc2cc(O)cc(-c3ncc4c(N5CC6CCC(C5)N6)nc(OCC56CCCN5CC(F)C6)nc4c3F)c12	105%
CC(Nc1ccc2c(c1)OCCn1cc(N3C(=O)OCC3C(F)F)nc1-2)C(N)=O (stereo unspecified) + C#Cc1c(F)ccc2cc(O)cc(-c3ncc4c(N5CC6CCC(C5)N6)nc(OCC56CCCN5CC(F)C6)nc4c3F)c12	84.3%
C=CC(=O)N1CCN(c2nc(OCC3CCCN3C)nc3c(F)c(-c4nc(N)cc(C)c4C(F)(F)F)c(Cl)cc23)C(C)C1 (stereo unspecified) + C#Cc1c(F)ccc2cc(O)cc(-c3ncc4c(N5CC6CCC(C5)N6)nc(OCC56CCCN5CC(F)C6)nc4c3F)c12	102%
NC1c2ccccc2OC12CCN(c1cnc3c(N4CCCc5ncccc54)n[nH]c3n1)CC2 (stereo unspecified) + C#Cc1c(F)ccc2cc(O)cc(-c3ncc4c(N5CC6CCC(C5)N6)nc(OCC56CCCN5CC(F)C6)nc4c3F)c12	58.2%

Next, consider the following compound.
The measured viability, T/C associated with O=C(c1ccc(F)c(F)c1Nc1ccc(I)cc1F)N1CC(O)([C@@H]2CCCCN2)C1 + C#Cc1c(F)ccc2cc(O)cc(-c3ncc4c(N5CC6CCC(C5)N6)nc(OCC56CCCN5CC(F)C6)nc4c3F)c12 reads 59.3%

---

Test system: 388556-164-R-J1-PDC complex spheroid viability
experiment notes: Anticancer human tumor 388556-164-R-J1-PDC cell line growth inhibition [RAS];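 further: spheroids exposed to compound for 7 days before readout; 100% = DMSO vehicle control luminescence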
applied conditions: second compound 0.3 µM; first compound 3.16 µM; stronger effect = lower value
measured property: viability, T/C

Completed entries (count: 4):
compound	viability, T/C
CC1(O)CCCC1n1c(=O)c(C(F)F)cc2cnc(NC3CCN(S(C)(=O)=O)CC3)nc21 (stereo not given) + CCn1c(-c2cc(N3CCN(C)CC3)cnc2C(C)OC)c2c3cc(ccc31)-c1csc(n1)CC(NC(=O)C1CC1C)C(=O)N1CCCC(N1)C(=O)OCC(C)(C)C2	38.1%
CC(C)NCC(C(=O)N1CCN(c2ncnc3c2C(C)CC3O)CC1)c1ccc(Cl)cc1 (stereo not given) + CCn1c(-c2cc(N3CCN(C)CC3)cnc2C(C)OC)c2c3cc(ccc31)-c1csc(n1)CC(NC(=O)C1CC1C)C(=O)N1CCCC(N1)C(=O)OCC(C)(C)C2	24.4%
Cc1nc(N2CCC3(CC2)COC(C)C3N)c(CO)nc1Sc1ccnc(N)c1Cl (stereo not given) + CCn1c(-c2cccnc2C(C)OC)c2c3cc(ccc31)N1CCOC(CC(NC(=O)C(C(C)C)N(C)C(=O)C3(F)CCN(C(=O)C#CC(C)(C)N(C)C)CC3)C(=O)N3CCCC(N3)C(=O)OCC(C)(C)C2)C1	52.4%
CC(=O)OC12COC1CC(O)C1(C)C(=O)C(O)C3=C(C)C(OC(=O)C(O)C(NC(=O)OC(C)(C)C)c4ccccc4)CC(O)(C(OC(=O)c4ccccc4)C21)C3(C)C (stereo not given) + CCn1c(-c2cc(N3CCN(C)CC3)cnc2C(C)OC)c2c3cc(ccc31)-c1csc(n1)CC(NC(=O)C1CC1C)C(=O)N1CCCC(N1)C(=O)OCC(C)(C)C2	27.8%

Now for the compound whose viability, T/C we want.
# viability, T/C of CC(=O)OC12COC1CC(O)C1(C)C(=O)C(O)C3=C(C)C(OC(=O)C(O)C(NC(=O)OC(C)(C)C)c4ccccc4)CC(O)(C(OC(=O)c4ccccc4)C21)C3(C)C (stereo not given) + CCn1c(-c2cccnc2C(C)OC)c2c3cc(ccc31)N1CCOC(CC(NC(=O)C(C(C)C)N(C)C(=O)C3(F)CCN(C(=O)C#CC(C)(C)N(C)C)CC3)C(=O)N3CCCC(N3)C(=O)OCC(C)(C)C2)C1 = 71.4%

---

Test system: 388556-164-R-J1-PDC complex spheroid viability
experiment notes: Anticancer human tumor 388556-164-R-J1-PDC cell line growth inhibition [RAS];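 further: spheroids exposed to compound for 7 days before readout; 100% = DMSO vehicle control luminescence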
applied conditions: second compound 1 µM; first compound 0.0316 µM; stronger effect = lower value
measured property: viability, T/C (%)
Numbers only here, please. The scale is %.

molecule	viability, T/C, %
C[C@@H](NC(=O)c1ncnc(N)c1Cl)c1ncc(C(=O)Nc2cc(C(F)(F)F)c(Cl)cn2)s1 + C#Cc1c(F)ccc2cc(O)cc(-c3ncc4c(N5CC6CCC(C5)N6)nc(OCC56CCCN5CC(F)C6)nc4c3F)c12	105
CC(C)n1nc(-c2ccc3oc(N)nc3c2)c2c(N)ncnc21 + C=CC(=O)N1CCN(c2nc(OCC3CCCN3C)nc3c(F)c(-c4nc(N)cc(C)c4C(F)(F)F)c(Cl)cc23)C(C)C1	55.4

Field viability, T/C (388556-164-R-J1-PDC complex spheroid viability), entry C=CC(=O)Nc1cc(Nc2nccc(-c3cn(C)c4ccccc34)n2)c(OC)cc1N(C)CCN(C)C + C#Cc1c(F)ccc2cc(O)cc(-c3ncc4c(N5CC6CCC(C5)N6)nc(OCC56CCCN5CC(F)C6)nc4c3F)c12 : 60.5

Reading of viability, T/C for NC1c2ccccc2OC12CCN(c1cnc3c(N4CCCc5ncccc54)n[nH]c3n1)CC2 (centres undefined) + C#Cc1c(F)ccc2cc(O)cc(-c3ncc4c(N5CC6CCC(C5)N6)nc(OCC56CCCN5CC(F)C6)nc4c3F)c12 with 388556-164-R-J1-PDC complex spheroid viability: 54.3

// returns viability, T/C for Cc1nc(N2CCC3(CC2)COC(C)C3N)c(CO)nc1Sc1ccnc(N)c1Cl (centres undefined) + C=CC(=O)N1CCN(c2nc(OCC3CCCN3C)nc3c(F)c(-c4nc(N)cc(C)c4C(F)(F)F)c(Cl)cc23)C(C)C1 with 388556-164-R-J1-PDC complex spheroid viability; value = 91.2

---

Tested on: 388556-164-R-J1-PDC complex spheroid viability
experiment notes: Anticancer human tumor 388556-164-R-J1-PDC cell line growth inhibition [RAS];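 further: spheroids exposed to compound for 7 days before readout; 100% = DMSO vehicle control luminescence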
applied conditions: second compound 0.1 µM; first compound 0.0316 µM; stronger effect = lower value
measured property: viability, T/C (%)
The response must be a number in % with no trailing unit.

Some solved entries appear below for comparison.
compound	viability, T/C, %
CCN1CCN(Cc2ccc(Nc3ncc(F)c(-c4cc(F)c5nc(C)n(C(C)C)c5c4)n3)nc2)CC1 + C=CC(=O)N1CCN(c2nc(OCC3CCCN3C)nc3c(F)c(-c4nc(N)cc(C)c4C(F)(F)F)c(Cl)cc23)C(C)C1	90.3
CC(=O)OC12COC1CC(O)C1(C)C(=O)C(O)C3=C(C)C(OC(=O)C(O)C(NC(=O)OC(C)(C)C)c4ccccc4)CC(O)(C(OC(=O)c4ccccc4)C21)C3(C)C (stereo not drawn) + C#Cc1c(F)ccc2cc(O)cc(-c3ncc4c(N5CC6CCC(C5)N6)nc(OCC56CCCN5CC(F)C6)nc4c3F)c12	87.6

Let us examine a further case.
GET /values?item= C=CC(=O)Nc1cc(Nc2nccc(-c3cn(C)c4ccccc34)n2)c(OC)cc1N(C)CCN(C)C + C=CC(=O)N1CCN(c2nc(OCC3CCCN3C)nc3c(F)c(-c4nc(N)cc(C)c4C(F)(F)F)c(Cl)cc23)C(C)C1 &system= 388556-164-R-J1-PDC complex spheroid viability returns viability, T/C: 91.1

Taken from PubChem BioAssay AID2060907.
